tested on: A549 cell line; test: In vitro cytotoxic activity, MTT method, A549; details: A549, Conc. 25 µMol
Kindly state Toxicity % for each of the entries shown.
API: value field is a number in %; no unit string.

Recorded Toxicity % for CC(=O)C1C(c2ccc(N(C)C)cc2)c2c(C)nc3sc(C(=O)Nc4ccc(C)cc4)c(N)c3c2CC1(C)O (centres unmarked) on A549 cell line was 96.06

Measured Toxicity % for this entry COc1cccc2c1C(=O)c1c(O)c3c(c(O)c1C2=O)C[C@@](O)(C(=O)CO)C[C@@H]3O[C@H]1C[C@H](N)[C@H](O)[C@H](C)O1 on A549 cell line: 98.9

Readout Toxicity % for CC(=O)C1C(c2ccc(N(C)C)cc2)c2c(C)nc3sc(C(=O)Nc4ccccc4)c(N)c3c2CC1(C)O (centres unmarked) , test system A549 cell line, was 97.95

Hey, A549 cell line data for CCOC(=O)CSc1nc(C)c2c(c1C#N)CC(C)(O)C(C(C)=O)C2c1ccc(N(C)C)cc1 (centres unmarked) : Toxicity % came out at 97.28

# value of Toxicity %, A549 cell line, item CC(=O)C1C(c2ccc(N(C)C)cc2)c2c(C)nc(SCC(=O)Nc3ccccc3)c(C#N)c2CC1(C)O (centres unmarked) = 96.98

// returns Toxicity % for CSc1nc(C)c2c(c1C#N)CC(C)(O)C(C(C)=O)C2c1ccc(N(C)C)cc1 (centres unmarked) with A549 cell line; value = 96.45

Measured Toxicity % (A549 cell line), entry CC(=O)C1C(c2ccc(N(C)C)cc2)c2c(C)nc(SCC(=O)Nc3ccc(Cl)cc3)c(C#N)c2CC1(C)O (centres unmarked) : 97.44

Form: item CC(=O)C1C(c2ccc(N(C)C)cc2)c2c(C)[nH]c(=S)c(C#N)c2CC1(C)O (centres unmarked) ; test system A549 cell line; Toxicity %: 96.84

Note to self: Toxicity % of CC(=O)C1C(c2ccc(N(C)C)cc2)c2c(C)nc(SCC#N)c(C#N)c2CC1(C)O (centres unmarked) with A549 cell line was 96.29

The reported A549 cell line Toxicity % of CC(=O)C1C(c2ccc(N(C)C)cc2)c2c(C)nc(SCC(N)=O)c(C#N)c2CC1(C)O (centres unmarked) is 96.37

Query CC(=O)C1C(c2ccc(N(C)C)cc2)c2c(C)nc3sc(C(=O)Nc4ccc(Cl)cc4)c(N)c3c2CC1(C)O (centres unmarked) on A549 cell line; Toxicity % returned: 97

// Toxicity % (A549 cell line) for CC(=O)c1ccc(NC(=O)CSc2nc(C)c3c(c2C#N)CC(C)(O)C(C(C)=O)C3c2ccc(N(C)C)cc2)cc1 (centres unmarked) = 96.61

CC(=O)C1C(c2ccc(N(C)C)cc2)c2c(C)nc(SCC(=O)Nc3ccc(C)cc3)c(C#N)c2CC1(C)O (centres unmarked) tested on A549 cell line gave Toxicity %: 96.41

Simply: CC(=O)c1ccc(NC(=O)c2sc3nc(C)c4c(c3c2N)CC(C)(O)C(C(C)=O)C4c2ccc(N(C)C)cc2)cc1 (centres unmarked) , A549 cell line, Toxicity % = 96.65

###

test system: MCF7 cell line; experiment: In vitro cytotoxic activity, MTT method, MCF7; assay type: cell-based, human; settings: MCF7, 0.0487 µMol
Exercise: state measured Viability % for each of the compounds provided.
Give a bare numeral; the unit % is implied.

What the record says about CCOC(=O)CSc1nc(C)c2c(c1C#N)CC(C)(O)C(C(C)=O)C2c1ccc(N(C)C)cc1 (stereo not shown) [Compound 4] : Viability % is 99.94

Please fill in: Viability % reported for COc1cccc2c1C(=O)c1c(O)c3c(c(O)c1C2=O)C[C@@](O)(C(=O)CO)C[C@@H]3O[C@H]1C[C@H](N)[C@H](O)[C@H](C)O1 [Doxorubicin, reference compound] = 51.88

The reported value for CC(=O)C1C(c2ccc(N(C)C)cc2)c2c(C)nc(SCC(N)=O)c(C#N)c2CC1(C)O (stereo not shown) [Compound 5] in terms of Viability % is 104.5

The value of Viability % measured for the compound CC(=O)C1C(c2ccc(N(C)C)cc2)c2c(C)[nH]c(=S)c(C#N)c2CC1(C)O (stereo not shown) [Compound 1] turned out to be 99.73

compound CC(=O)C1C(c2ccc(N(C)C)cc2)c2c(C)nc(SCC#N)c(C#N)c2CC1(C)O (stereo not shown) [Compound 6] , Viability % observed: 80.118

According to the records, this compound CC(=O)C1C(c2ccc(N(C)C)cc2)c2c(C)nc(SCC(=O)Nc3ccccc3)c(C#N)c2CC1(C)O (stereo not shown) [Compound 7a] displays Viability % of 105.8

CC(=O)C1C(c2ccc(N(C)C)cc2)c2c(C)nc(SCC(=O)Nc3ccc(C)cc3)c(C#N)c2CC1(C)O (stereo not shown) [Compound 7b] yielded Viability % of 95.4311

Viability % for CSc1nc(C)c2c(c1C#N)CC(C)(O)C(C(C)=O)C2c1ccc(N(C)C)cc1 (stereo not shown) [Compound 3] is 94.876

Entry CC(=O)c1ccc(NC(=O)CSc2nc(C)c3c(c2C#N)CC(C)(O)C(C(C)=O)C3c2ccc(N(C)C)cc2)cc1 (stereo not shown) [Compound 7d] — recorded Viability % = 98.2255

Data point: CC(=O)C1C(c2ccc(N(C)C)cc2)c2c(C)nc(SCC(=O)Nc3ccc(Cl)cc3)c(C#N)c2CC1(C)O (stereo not shown) [Compound 7c] ; Viability % = 100.4
